Biological target: monoamine oxidase (type B enzyme, β-phenylethylamine substrate) (Rattus norvegicus, UniProt P19643)
Sequence (P19643 1-520): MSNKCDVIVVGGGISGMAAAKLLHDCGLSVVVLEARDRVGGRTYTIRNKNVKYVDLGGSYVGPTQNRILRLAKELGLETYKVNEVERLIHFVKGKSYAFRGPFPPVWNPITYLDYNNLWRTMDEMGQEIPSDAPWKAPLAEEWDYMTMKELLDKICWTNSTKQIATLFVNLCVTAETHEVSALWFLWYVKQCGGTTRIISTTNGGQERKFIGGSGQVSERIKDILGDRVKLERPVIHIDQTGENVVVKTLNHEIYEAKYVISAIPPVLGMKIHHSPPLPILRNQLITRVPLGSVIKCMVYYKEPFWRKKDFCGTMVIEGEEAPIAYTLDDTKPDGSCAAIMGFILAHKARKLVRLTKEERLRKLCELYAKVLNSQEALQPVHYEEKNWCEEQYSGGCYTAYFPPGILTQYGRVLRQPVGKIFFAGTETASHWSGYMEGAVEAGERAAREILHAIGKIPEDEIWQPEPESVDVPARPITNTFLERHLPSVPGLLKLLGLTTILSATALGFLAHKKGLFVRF
Experiment: in-vitro monoamine oxidase inhibition, [14C]phenylethylamine hydrochloride as substrate
Format: biochemical
Settings: Table I; monoamine oxidase extract of Wistar rat tissue, pH 7.4, 37° C., 20 minutes; read-out: I.C.50-value using as substrate [14C]phenylethylamine . HCl
Counter-ions that a name gives are not always drawn.
experimental-readout: pIC50
One number for each entry, as −log10 of the molar value.

Solved entries:
compound: c1ccc2c3c(ccc2c1)SC1=NCCN13
experimental-readout: pIC50
obs-value: 5.40
//
compound: CCCN(C=C(C(=O)OCC)C(=O)OCC)c1ccc2c(c1)SC1=NCCN12
experimental-readout: pIC50
obs-value: 5.66
//
compound: CC(C)Nc1ccc2c(c1)N1CCN=C1S2
experimental-readout: pIC50
obs-value: 4.47
//
compound: CCCCCCc1ccc2c(c1)SC1=NCCN12
experimental-readout: pIC50
obs-value: 7.40
//
compound: c1cc2c(cc1C1CCCCC1)SC1=NCCN12
experimental-readout: pIC50
obs-value: 7.19
//
compound: c1ccc(Oc2ccc3c(c2)SC2=NCCN23)cc1
experimental-readout: pIC50
obs-value: 7.02
//
compound: Clc1ccc(CNc2ccc3c(c2)N2CCN=C2S3)cc1
experimental-readout: pIC50
obs-value: 7.15
//
compound: CCNc1ccc2c(c1)N1CCN=C1S2
experimental-readout: pIC50
obs-value: 4.40
//
compound: COc1cc(CNc2ccc3c(c2)SC2=NCCN23)cc(OC)c1OC [7-NHCH2 [3,4,5-(OCH3)3C6 H2]]
experimental-readout: pIC50
obs-value: 7.15

Sample O=C(c1ccccc1)c1ccc2c(c1)N1CCN=C1S2 [6-COC6 H5, monohydrochloride] — what was its pIC50?
5.52

---

Target: monoamine oxidase (type B enzyme, β-phenylethylamine substrate) (Rattus norvegicus, UniProt P19643)
Assay: in-vitro monoamine oxidase inhibition, [14C]phenylethylamine hydrochloride as substrate
Assay type: biochemical
Conditions: Table I; monoamine oxidase extract of Wistar rat tissue, pH 7.4, 37° C., 20 minutes; read-out: I.C.50-value using as substrate [14C]phenylethylamine . HCl
pIC50: −log10 of the molar value.
Parameter threshold = 5. Response is true (1) when pIC50 meets or exceeds it, else false (0).

Worked set:
compound: CC(=O)Nc1ccc2c(c1)N1CCN=C1S2 [Example 6-NHCOCH3]
assigned-label: false (0)
--
compound: C#CCNc1ccc2c(c1)SC1=NCCN12
assigned-label: false (0)
--
compound: CCOC(=O)C(=CNc1ccc2c(c1)SC1=NCCN12)C(=O)OCC [7-NHCHC(COOEt)2]
assigned-label: true (1)

Check the entry Cc1cccc2c1N1CCN=C1S2 [Example 5-CH3] : does pIC50 equal or exceed 5?
true (1)

Another: CCCc1ccc2c(c1)SC1=NC(c3ccccc3)CN12 (stereo not shown) [2-C6 H5,7-C3 H7]
true (1)

What do you have for Clc1cccc2c1N1CCN=C1S2 [Example 5-Cl] ?
true (1)

Same question, CCNc1ccc2c(c1)SC1=NCCN12 [7-NHC2 H5] this time
false (0)

Can you check CCC(CC)Nc1ccc2c(c1)N1CCN=C1S2 [6-NHCH(C2 H5)2] next?
true (1)

Then this compound: CCNc1cccc2c1SC1=NCCN12 [8-NHC2 H5]
false (0)

Another: COc1ccc2c(c1)SC1=NCCN12 [Example 7-OCH3]
false (0)

---

Protein target, amino acids: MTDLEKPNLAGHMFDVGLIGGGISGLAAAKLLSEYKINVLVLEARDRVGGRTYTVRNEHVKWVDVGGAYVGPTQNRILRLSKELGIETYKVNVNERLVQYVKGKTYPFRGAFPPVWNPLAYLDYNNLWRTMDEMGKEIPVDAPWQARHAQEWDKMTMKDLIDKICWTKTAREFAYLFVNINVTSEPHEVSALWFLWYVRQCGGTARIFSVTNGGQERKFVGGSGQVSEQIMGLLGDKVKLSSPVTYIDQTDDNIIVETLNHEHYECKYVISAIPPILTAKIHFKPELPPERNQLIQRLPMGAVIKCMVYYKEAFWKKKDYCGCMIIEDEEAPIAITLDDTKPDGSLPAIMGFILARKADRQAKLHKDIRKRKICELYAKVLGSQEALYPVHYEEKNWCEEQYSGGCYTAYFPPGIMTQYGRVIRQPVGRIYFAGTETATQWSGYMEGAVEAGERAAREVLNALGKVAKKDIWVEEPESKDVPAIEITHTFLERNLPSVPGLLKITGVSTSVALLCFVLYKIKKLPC
Consider the following compounds; for each one, report its IC50.

compound: Clc1cccc2c1N1CCN=C1S2
obs-value: 120 nM

Batch: IC50 for all items listed.
1. CCNc1ccc2c(c1)SC1=NCCN12
2. CC(CO)Nc1ccc2c(c1)N1CCN=C1S2 (stereo not drawn)

1. 100 nM
2. 130 nM

---

So I've got a bunch of compounds here, and I need their pIC50 values.
Molecular target: monoamine oxidase (type B enzyme, β-phenylethylamine substrate) (Rattus norvegicus, UniProt P19643)
Assay: in-vitro monoamine oxidase inhibition, [14C]phenylethylamine hydrochloride as substrate
Type: biochemical
Conditions: Table I; monoamine oxidase extract of Wistar rat tissue, pH 7.4, 37° C., 20 minutes; read-out: I.C.50-value using as substrate [14C]phenylethylamine . HCl
Answers are plain numbers, as −log10 of the molar value.

smiles-data: NC(=O)Nc1ccc2c(c1)N1CCN=C1S2
obs-value: 4.92
--
smiles-data: c1c2c(cc3c1SC1=NCCN13)CCC2
obs-value: 4.92

# next compound below
So what's the measured pIC50 for this one? CCc1ccc2c(c1)N1CCN=C1S2
5.00

Attribution: patent US4262004A
